Where these numbers come from: the nanobody polyreactivity screen of Harvey et al. (2022)

Assay: yeast display, Sf9 membrane polyspecificity reagent, FACS + sequencing; frameworks hold sequencing errors
Property label: polyreactivity (PSR sort gate)

Recorded results for 5 sequences are shown here.
QVQLVESGGGLVQAGGSLRLSCAASGSTFVKNAMGWYRQAPGKERELVAAIRSSGGSTYYADSVKGRFTISRDNAKNTVYLQMNSLKPEDTAVYYCNKVLQASRSKYYYWGQGTQVTVSS ... high polyreactivity
QVQLVESGGGLVQAGGSLRLSCAASGSTFYFNAMGWYRQAPGKERELVAGIYSGGSTYYADSVKGRFTISRDNAKNTVYLQMNSLKTEDTAVYYCAATWLVERPFSYTEYGYWGQGTQVTVSS ... low polyreactivity
QVQLVESGGGLVQAGGRLRLSCAASGSIFDENTMGWYRQAPGKERELVAAITYSGTSTYYADTVKGRFTISRDNAKNTVYLQMNSLKPEDTAVYYCAAEQWRYDGSFTGYGYWGQGTQVTVSS ... low polyreactivity
QVQLVESGGGLVQAGGSLRLSCAASGSIFNYNTMGWYRQAPGKERELVADISWSGGSTYYADSVKGRFTISRDNAKNTVYLQMNSLKPEDTAVYYCAADFGLFPYVGTGYYYWGQGTQVTVSS ... low polyreactivity
QVQLVESWGGLVQAGGSLRLSCAASGRTLGYNAMGWYRQAPGKERELVATISYNGGRTYYADSVKGRFTISRDNAKNTVYLQMNSLKPEDTAVYYCNTRYRWIRRSLFDYWGQGTQVTVSS ... high polyreactivity

I have 7 sequences here; please give me polyreactivity (PSR sort gate) for each one.
1. QVQLVESGGGLVQAGGSLRLSCAASGSIFDYNAMGWYRQAPGKERELVASIRWSGGRTYYADSVKGRFTISRDNAKNTVYLQMNSLKPEDTAVYYCNRKPQEYVLQGSSNGYDYWGQGTQVTVSS
2. QVQLVESGGGLVQAGGSLRLSCAASGRTFTSYAMGWYRQAPGKERELVATISTGGSTNYADSVKGRFTISRDNAKNTVYFQMNSLKPEDTAVYYCAAQVDGKRQYYRYDYWGQGTQVTVSS
3. QVQLVESGGGLVQAGGSLRLSCAASGSNFFTNAMGGYRQAPGKERELVAVITKRGGSTYYADSVKGRFTISRDNAKNTVYIQMNSLKPEDTAVYYCAADARQWRYYYWGQGSQVTVSS
4. QVQLVESGGGLVQAGGSLRLSCAASGRIFRVYTMGWYIQAPGKERELVAAISRGGTTTYADSVKGRFTISRDNAKNTVYLQMNSLKPEYTAVYYCNARGWFRGEFDYWGQGTQVTVSS
5. QVQLVDSGGGLVQAGGSLRLSCAASGRTIYLYAMACYRQAPGKERELVAAISERGGRTYYADSVKGRFTISRDNAKNTVYLQMNSLKPEDTAVYYCAAVKGYNYGYWGQGTQVTVSS
6. QVQLVESGGGLVQAGGSLRLSCAASGRIFYPYFMGWYRQAPGKERELVAAISASGGRTYYADSVKGRFTISRDNSKNTVYLQMNSLKPEDTAVYYCNARTVPAGTLYDYWGQGTQVTVSS
7. QVQLVESGGGLVQAGGSLRLSCAASGITFYPYVMGWYRQAPGKERELVAVITWSGGRTYYADSVKGRFTISRDNAKNTVYLQMNSLKPEDTAVYYCAADPLSGYDYWGQGTQVTVSS

["low polyreactivity", "low polyreactivity", "high polyreactivity", "high polyreactivity", "high polyreactivity", "low polyreactivity", "low polyreactivity"]

I have 4 sequences here; please give me polyreactivity (PSR sort gate) for each one.
1. QVQLVESGGVLVQAGGSLRLSCAASGRSFGVYAMGWYRQAPGKEMELVAAISEGGGSTNYADSVKGRFTISRDNAKNTVYLQMNSLKPEDTAVYYCAATYRTGVRRYYSWGQGTQVTVSS
2. QVQLVESGGGLVQAGGSLRLSCAASGFTFDSNAMGWYRQAPGKERELVAAISSSGGSTYYADSVKGRFTISRDNAKNTVYLQMNSLKPEDTAVYYCNARRRTVPYRYDYWGQGTQVTVSS
3. QVQLVESGGGLVQAGGSLRLSCAASGSIFAYYAMGWYRQAPGKERELVARIRRRSSSTFYADSVKGRFTISRDNAKYTVYLQMNSLKPEDTAVYYCAVRGPGTSTYWYHEYEYWGQGTQVTVSS
4. QVQLVESGGGLVQAGGSLRLSCAASGFIFVPYAMGWYRQAPGKERELVAAISSGGSTYYADSVKGRFTISRDNAKNTVYLQMNSLKPEDTAVYYCNKRYYLYQYRYDYWGQGTQVTVSS

low polyreactivity
high polyreactivity
high polyreactivity
low polyreactivity

I have 2 sequences here; please give me polyreactivity (PSR sort gate) for each one.
1. QLQLVESGGGLVQAGGSLRLSCAASGSTFPTNAMGWYRQAPGKERELVARISWDGGRTNYADSVKGRFTISRDNAKNTVYLQMNSLKPEDTAVYYCAAEKQHFGPYGYWGQGTQVTVSS
2. QDQLVESGGGLVQAGGSLRLSCAASVITFDLYAMGWYRQAPGKERELVAAISISSTSTYYADSVKGLFTISRDNAKNTVYLQMISLKPEDTAGYYCNAVPSSKTFWFDYWGLGTQVTVSS

["low polyreactivity", "low polyreactivity"]

I have 3 sequences here; please give me polyreactivity (PSR sort gate) for each one.
1. QVQLVESGGGLVQAGGSLRLSFAASGIILGSYAMGWYRQAPGKERELVAGITSGGGTYYADSVKGRFTISRDNAKNTVYLQMNSLKPEDTAVYYCAKLYLHYYRYGYWGQGTQVTVSS
2. QVQLLESGGGLVQPGGSLRLSCAASGSIFDGYAMVWYRQAPGKERELVAAISSSGGSTYYADSVKGRYTISRDTAKNTVYLQMNSLQREDSAVYYCAARFPWRGGVKYSYYFQHDYWGQGTQVTVSS
3. QVQLVESGGGLVQAGGSLRLSCAASGRTVDWYAMGWYRQAPGTDRELVAVISSSGGRTYYADSVKGRFTISRDNAKNTVYLQMNRLKPEDTAVYYCATQNGSKRYSYYYWGQGTQVTVSS

1: low polyreactivity; 2: high polyreactivity; 3: high polyreactivity

* * *

Assay: yeast display, Sf9 membrane polyspecificity reagent, FACS + sequencing; frameworks hold sequencing errors
Property label: polyreactivity (PSR sort gate)

QVQLVESGGGVVQAGGSLRLSCAASGFIFYYNTMGWYRQAPGKERELVASMTWSGDTTYYADSVKGRFTISRDNAKNTVYLQMNSLTPEDTAVYYCAAVHYDPYRRYDYWGQGTQVTVSS ... low polyreactivity
QVQLVESGGGLVQAGGSLRLSCAASGFTFSFYAMGWYRQAPGKERELVAAISSGGRTSYADSVKGRFTISRDNAKNTVYLQMNSLKPEDTAVYYCAASYPGRYWLYRYEYWGQGTQVTVSS ... high polyreactivity
QVQLVESGGGLVQAGGSLRLSCAASGRIFAFYAMGWYRQAPGKEREFVAAISWSGGSTYYADSVKGRFTISRDNAKNTVYLQMNSLKPEDTAVYYCAARSRVRHSGMNYWGQGTQVTVSS ... high polyreactivity
QVQLVESGGGLVQAGGSLRLSCAATGSIFQSYAMGRYRQAPGKERELVAGISSGGSTNYADSVKGRFTISRDNAMNTDYLQMNSLKPEDTAVYYCATGGFAGASFAYEYYYWGQGTQVTVSS ... low polyreactivity

Which polyreactivity (PSR sort gate) is reported for this sequence? `QVQLVESGGGLVQAGGSLRLSCAASGFTFAYYDMGWYRQAPGKERELVAAISQSGGSTYYADSVKGRFTISRDNAKNTVYLQMKSLKPEDTAVYYCNAYAYTQSYEYDYWGQGTQVTVSS` high polyreactivity

* * *

Assay: yeast display, Sf9 membrane polyspecificity reagent, FACS + sequencing; frameworks hold sequencing errors
Property label: polyreactivity (PSR sort gate)

QVQLVETGGGLVQAGGSLHLSCAASGIIIYANDMGWYRQAPGKERELVAGISRNGGRTYYADSVKGRFTISRDNAKNTVYLQMNSLKPEDTAVYYCAARGSYTSIFDYWGQGTQVTVSS ... high polyreactivity
QVQLVESGGGLVQAGGSLRLSCAASGRIFRYYAMGWYRQAPGKERELVAAITRGGSTNYADSVKGRFTISRDNAKNTVYLLMNSLKPEVTAVDYCNAPYWKSRFRAYYHWGQGTQVTVSS ... high polyreactivity

* * *

Assay: yeast display, Sf9 membrane polyspecificity reagent, FACS + sequencing; frameworks hold sequencing errors
Property label: polyreactivity (PSR sort gate)

Recorded results for 10 sequences are shown here.
QVHHVESGGGVVQAGGSLRLSCAASGRITYVNAMGWYRQPPGKESELVATITGSGDSKHYADSVKGRFTISRDNAMNTVYLQMNSLKPEVTAVYYGAADVYRYWQIYEYWGQGTQVTVSS ... low polyreactivity
QVQLVESGGGLVQAGGSLRLSCAASGFIFSCYAMGWYRQAPGKERELFAAISSSGVSTYYADSVKGRFTISRDNAKNTVYLHMNSLKPEDTAVNYCNAYGSVWDRGEYDYEYWGQGTQVTVSS ... low polyreactivity
QVQLVESGGGLVQAGGSLRLSCAASGSIFTPYAMGWYRQAPGKERELVAAITQTGGITYYADSVKGRFTISRDNAKNTVYLQMNSLKPEDTAVYYCAADDYNPFSYSYGLEYWGQGTQVTVSS ... low polyreactivity
QVQLVESGGGLVQAGGSLRLSCAASGFIFTRYAMGWYRQAPGKERELVAVITSSGGTYYADSVKGRFTISRDNAKNSVYLQMNSLKPEDTAVYYCNADFYRVAYLRRYSHFDYWGQGTQVTVSS ... high polyreactivity
QVQLVESGGGLVQAGGSLRLSCAASGSIFHPYTMGWYRQAPGKERELVAAISWSGGNTNYADSVKGRFTISRDNAKNTVYLQMNSLKPDDTAVYYCIKATNLSGGYDSWGLGTQVTVSS ... low polyreactivity
QVQLVESGGGLVQAGGSLRLSCAASVFTFISYAMGRYRQAPGKEREFVAAITRGGGSTYYADSVKGRFTISRDNAKNTVYLQMNSLKPEDTAVYYCAADPQSTIRDYWGQGTQVTVSS ... high polyreactivity
QVQLVESGGGLVQAGGSLRLSCAASGSTLYYYTMGWYRQAPGKERELVAAINWSGTITYYADSVKGRFTISRDNAKNTVYLQMNSLKPEDTAVYYCNAVYYRQGFDYWGQGTQVTVSS ... high polyreactivity
QVQLVESGGGVVQAGGSLRLSSAASGRIFQAYAMGWYRQAPGKEWELVAAISRSGGGTYYSDSVKGRFTISRDYAKNTVYLQMNSLKPEDTAVYYCNARGSTARGRGYWGQGTQVTVTS ... high polyreactivity
QVQLVESGGGLVQAGGSLRLSCADSGFTFYRNAMGWYRQAPGKERELVAAITSTGSTNYADSVKGRFTISRDNAKNTVYLQMNSLKPEDTAVYYCIKRRFGRQGMDYWGQGTQVTVSS ... low polyreactivity
QVQLVESGGGLVQAGGSLRLSCAASGRIFYINDMGCYRQAPGKEREFVASITGSGGRTYYADSVKGRFTISRDNAKNTVYLQMNSLKPEDTAVYYCNADLYVGYLYYLYDYWGQVTQVTVSS ... low polyreactivity

Then there is this sequence:
Which polyreactivity (PSR sort gate) is reported for this sequence? `QVQLVESGGGLVQAGGSLRLSCAASGSTILYYGMGWYRQAPGKERELVATITWRGGRTYYADSVKGRFTISRDNAKNTVYLQMNSLKTEDTAVYYCARVRLTTYGYYSWGQGTQVTVSS` high polyreactivity
